The values you see were collected from patent US20090239828A1.

- assay_comment: Clinical test, once daily oral administration to patients with osteoporosis
- stated_conditions: human, in vivo
assay_readout: AUC

Identify measured AUC associated with O=P(O)(O)C(O)(Cc1cnc2ccccn12)P(=O)(O)O [minodronic acid hydrate]
≥ 1 ng·h/mL

----------
- assay_comment: Oral administration in rat models of osteoporosis
- stated_conditions: in vivo; from the minimum effective dose in oral administration in rat models; read-out: sum of the AUC value of minodronic acid per month that gives a suppressive effect on osteoporosis
assay_readout: AUC

Identify measured AUC associated with O=P(O)(O)C(O)(Cc1cnc2ccccn12)P(=O)(O)O [minodronic acid hydrate]
≥ 5 ng·h/mL
